- Tested on: SN12C renal
- ASSAY_COMMENT: NCI-60 one-dose screen, 48 h (100 = growth as untreated, 0 = no growth, -100 = all killed)
- EXPERIMENTAL_SETUP: 10 µM unless noted
This is part of a sample that, as a whole, favours compounds with a hit. Of some 83,000 tested, about 20% had one in any assay.
QUANTITY: growth (%)
Give bare numbers, in %.

Worked cases, answers included:
{"COMPOUND": "Cn1cc(-c2cc3nc(-c4cn(C)c5ncc(Br)cc45)cc(N)n3n2)c2cc(F)ccc21", "NUMBER": 26.4}
{"COMPOUND": "FC(F)(F)CN1CCN(CCn2c(C(F)(F)F)cc3c(Cl)ncnc32)CC1", "NUMBER": 34.8}
{"COMPOUND": "FC(F)(F)c1cc2c(Cl)ncnc2n1CCC1CCOCC1", "NUMBER": 40.7}
{"COMPOUND": "COc1cc(CNC(=O)C[C@H](C)CCC=C(C)C)ccc1OCc1cn(-c2ccccc2Cl)nn1", "NUMBER": 69.6}
{"COMPOUND": "CCCSc1nnc(-c2sc3nc4ccccc4n3c2C)o1", "NUMBER": 105}

Hi, could you look up growth for each item in my list?
1. N#Cc1ccc(C(=O)NNC(=O)CSc2nc3sc4c(c3c(=O)n2-c2ccc(Cl)cc2)CCCC4)cc1
2. COc1cc(C2CC(c3ccc(C(F)(F)F)cc3)=Nc3c(N)nc(N)nc3N2)ccc1Oc1nc(Nc2ccc(F)cc2)nc(N(C)C)n1 (stereo not drawn)
3. COc1cc(CNC(=O)C[C@H](C)CCC=C(C)C)ccc1OCc1cn(-c2ccc(Cl)c(Cl)c2)nn1

Response:
1. 41.7
2. 50.7
3. 38.2
